Values were extracted from ChEMBL document CHEMBL5550104.

Target: UniProt:O75417
Sequence (O75417 whole entry): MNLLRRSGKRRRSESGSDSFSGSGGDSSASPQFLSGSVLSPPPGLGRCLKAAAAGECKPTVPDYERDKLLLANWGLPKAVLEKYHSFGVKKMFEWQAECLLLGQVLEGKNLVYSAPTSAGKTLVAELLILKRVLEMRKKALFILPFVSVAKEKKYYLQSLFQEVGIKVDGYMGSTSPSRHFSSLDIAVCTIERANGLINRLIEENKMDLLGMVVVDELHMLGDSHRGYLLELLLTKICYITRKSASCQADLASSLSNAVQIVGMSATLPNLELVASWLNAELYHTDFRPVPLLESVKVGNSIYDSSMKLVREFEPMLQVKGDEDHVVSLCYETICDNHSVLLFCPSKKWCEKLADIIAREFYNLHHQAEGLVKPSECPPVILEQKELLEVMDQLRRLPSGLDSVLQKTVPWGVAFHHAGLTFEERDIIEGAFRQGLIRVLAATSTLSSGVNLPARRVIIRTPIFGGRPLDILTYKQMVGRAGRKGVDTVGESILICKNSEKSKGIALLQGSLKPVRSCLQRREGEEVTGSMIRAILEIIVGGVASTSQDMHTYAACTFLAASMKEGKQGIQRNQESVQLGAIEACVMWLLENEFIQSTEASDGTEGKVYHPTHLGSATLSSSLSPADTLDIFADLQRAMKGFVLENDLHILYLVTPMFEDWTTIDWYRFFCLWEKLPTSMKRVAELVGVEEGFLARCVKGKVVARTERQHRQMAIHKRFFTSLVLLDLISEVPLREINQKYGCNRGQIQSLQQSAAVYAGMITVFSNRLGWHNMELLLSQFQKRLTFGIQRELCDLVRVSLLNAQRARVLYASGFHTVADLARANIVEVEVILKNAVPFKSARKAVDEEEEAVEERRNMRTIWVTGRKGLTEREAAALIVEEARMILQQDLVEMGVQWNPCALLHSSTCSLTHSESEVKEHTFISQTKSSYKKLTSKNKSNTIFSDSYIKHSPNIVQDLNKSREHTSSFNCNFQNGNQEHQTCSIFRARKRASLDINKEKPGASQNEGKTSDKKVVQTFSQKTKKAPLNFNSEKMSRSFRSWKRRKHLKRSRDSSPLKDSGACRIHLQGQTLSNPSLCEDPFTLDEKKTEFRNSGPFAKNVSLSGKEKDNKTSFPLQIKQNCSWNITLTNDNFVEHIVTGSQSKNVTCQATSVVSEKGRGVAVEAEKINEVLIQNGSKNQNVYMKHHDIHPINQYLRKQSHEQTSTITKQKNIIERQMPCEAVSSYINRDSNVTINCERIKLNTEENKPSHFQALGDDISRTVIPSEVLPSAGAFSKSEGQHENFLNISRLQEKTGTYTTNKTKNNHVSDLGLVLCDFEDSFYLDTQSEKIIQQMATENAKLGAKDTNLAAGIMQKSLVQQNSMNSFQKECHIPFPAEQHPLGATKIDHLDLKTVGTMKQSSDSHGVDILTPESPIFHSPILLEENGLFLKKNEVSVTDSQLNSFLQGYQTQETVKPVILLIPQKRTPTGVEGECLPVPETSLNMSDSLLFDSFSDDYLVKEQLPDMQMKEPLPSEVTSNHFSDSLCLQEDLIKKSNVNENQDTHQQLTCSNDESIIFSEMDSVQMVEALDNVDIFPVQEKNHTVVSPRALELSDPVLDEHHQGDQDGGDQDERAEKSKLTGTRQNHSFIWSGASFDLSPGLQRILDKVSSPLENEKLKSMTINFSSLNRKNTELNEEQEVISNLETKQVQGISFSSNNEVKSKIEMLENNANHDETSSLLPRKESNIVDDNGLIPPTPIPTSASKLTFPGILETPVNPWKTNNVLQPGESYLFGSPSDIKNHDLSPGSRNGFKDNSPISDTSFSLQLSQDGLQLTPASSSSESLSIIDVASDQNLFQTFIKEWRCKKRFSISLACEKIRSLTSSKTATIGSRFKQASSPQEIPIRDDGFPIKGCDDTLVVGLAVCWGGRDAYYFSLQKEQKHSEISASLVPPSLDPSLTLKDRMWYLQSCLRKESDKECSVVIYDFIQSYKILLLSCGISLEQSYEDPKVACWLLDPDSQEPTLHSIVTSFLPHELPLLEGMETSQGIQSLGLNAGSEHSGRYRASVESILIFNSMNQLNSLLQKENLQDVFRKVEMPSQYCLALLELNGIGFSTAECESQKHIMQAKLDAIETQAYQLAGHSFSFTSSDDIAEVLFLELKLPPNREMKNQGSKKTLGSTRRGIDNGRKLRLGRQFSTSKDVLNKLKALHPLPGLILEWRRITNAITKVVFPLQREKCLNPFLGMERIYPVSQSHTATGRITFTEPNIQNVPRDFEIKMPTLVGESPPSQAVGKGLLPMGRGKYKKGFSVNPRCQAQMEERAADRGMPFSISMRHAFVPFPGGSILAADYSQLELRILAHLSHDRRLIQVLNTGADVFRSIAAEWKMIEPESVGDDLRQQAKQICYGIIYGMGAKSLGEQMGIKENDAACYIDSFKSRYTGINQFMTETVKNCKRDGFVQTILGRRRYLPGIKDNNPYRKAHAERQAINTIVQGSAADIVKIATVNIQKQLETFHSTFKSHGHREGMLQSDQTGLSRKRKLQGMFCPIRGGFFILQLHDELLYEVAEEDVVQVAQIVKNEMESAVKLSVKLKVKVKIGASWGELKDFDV
Assay: Inhibition of DNA polymerase theta mediated TMEJ repair activity in human HEK293T cells transfected with TMEJ reporter incubated for 24 hrs by Nano-glo luciferase assay
Format: cell-based
readout-kind: pIC50
Convention used: pIC50 is expressed as -log10 of the molar concentration.

Which pIC50 value is on record for Cc1cc(C(F)(F)F)c(C#N)c(N2CC[C@@H](O)[C@H]2C(=O)N(C)c2ccc(F)c(Cl)c2)n1 ?
6.80

---

Biological target: Cytochrome P450 2D6 (Homo sapiens)
Sequence (P10635 whole entry): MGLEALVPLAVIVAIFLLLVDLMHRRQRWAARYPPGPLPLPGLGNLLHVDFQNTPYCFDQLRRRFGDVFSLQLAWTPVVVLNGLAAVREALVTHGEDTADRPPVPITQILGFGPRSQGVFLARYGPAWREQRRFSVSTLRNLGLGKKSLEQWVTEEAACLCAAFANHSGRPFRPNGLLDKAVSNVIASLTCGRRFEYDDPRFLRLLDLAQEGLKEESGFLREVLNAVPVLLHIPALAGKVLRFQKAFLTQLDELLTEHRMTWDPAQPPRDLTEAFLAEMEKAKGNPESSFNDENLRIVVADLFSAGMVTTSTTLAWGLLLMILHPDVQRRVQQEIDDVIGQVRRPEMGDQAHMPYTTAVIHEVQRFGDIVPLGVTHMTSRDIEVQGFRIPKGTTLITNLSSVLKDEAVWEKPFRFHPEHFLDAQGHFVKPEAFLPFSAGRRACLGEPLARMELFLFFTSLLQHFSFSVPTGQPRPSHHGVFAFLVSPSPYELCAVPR
readout-kind: IC50
Answer by giving the amount and then stating its unit.

If you can, please state the reported IC50 value of [2H]C([2H])([2H])N(C(=O)[C@@H]1[C@H](CO)CN1c1nc(C)cc(C(F)(F)F)c1C#N)c1ccc(F)c(Cl)c1 .
17.3 µM

---

Tested on: DLD-1
Experiment: Antiproliferative activity against BRCA2 deficient human DLD-1 cells assessed as inhibition of cell growth incubated for 7 days by Cell-titer glo luminescence assay
Assay type: functional, cell-based
Details: DLD-1, 168 h
readout-kind: IC50 (µM)
# value in µM; strip the unit string

Entry Cc1cc(C(F)(F)F)c(C#N)c(N2CC[C@@H](O)[C@H]2C(=O)N(C)c2ccc(F)c(Cl)c2)n1 : reported IC50 = ?
5.5
